molecular target: Prothrombin (Homo sapiens, UniProt P00734)
measurement.kind: Ki (nM)

Worked examples follow.
compound: N=C(N)c1ccc(CNC(=O)[C@@H]2Cc3cn(nn3)Cc3cccc([n+]3[O-])Cn3cc(nn3)C[C@@H](NS(=O)(=O)Cc3ccccc3)C(=O)N2)cc1
readout.units: nM
observed: 1180
//
compound: N=C(N)c1ccc(CNC(=O)[C@@H]2CCC(=O)NCc3cccc(c3)CNC(=O)CC[C@@H](NS(=O)(=O)Cc3ccccc3)C(=O)N2)cc1
readout.units: nM
observed: 2020
//
compound: N=C(N)c1ccc(CNC(=O)[C@@H]2Cc3cccc(c3)CNC(=O)Cc3ccc(cc3)CC(=O)NCc3cccc(c3)C[C@@H](NS(=O)(=O)Cc3ccccc3)C(=O)N2)cc1
readout.units: nM
observed: 45.4

[a] N=C(N)c1ccc(CNC(=O)[C@@H]2Cc3ccc(cc3)OCC=CCOc3ccc(cc3)C[C@@H](NS(=O)(=O)Cc3ccccc3)C(=O)N2)cc1 (mixture of isomers)
[b] N=C(N)c1ccc(CNC(=O)[C@@H]2Cc3cccc(c3)CNC(=O)CN3CCN(CC3)CC(=O)NCc3cccc(c3)C[C@@H](NS(=O)(=O)Cc3ccccc3)C(=O)N2)cc1
[c] N=C(N)c1ccc(CNC(=O)[C@@H]2Cc3cn(nn3)Cc3cccc(n3)Cn3cc(nn3)C[C@@H](NS(=O)(=O)Cc3ccccc3)C(=O)N2)cc1
IN: Arrange the 3 entries by Ki so the values rise. Form entry: labels listed in requested order.
OUT: b, a, c
(b: 7.2 nM, a: 137 nM, c: 6170 nM)
